The listing below reports pIC50 for compounds tested on AHAS protein WT (Arabidopsis thaliana, UniProt P17597).
Sequence (P17597 56-670): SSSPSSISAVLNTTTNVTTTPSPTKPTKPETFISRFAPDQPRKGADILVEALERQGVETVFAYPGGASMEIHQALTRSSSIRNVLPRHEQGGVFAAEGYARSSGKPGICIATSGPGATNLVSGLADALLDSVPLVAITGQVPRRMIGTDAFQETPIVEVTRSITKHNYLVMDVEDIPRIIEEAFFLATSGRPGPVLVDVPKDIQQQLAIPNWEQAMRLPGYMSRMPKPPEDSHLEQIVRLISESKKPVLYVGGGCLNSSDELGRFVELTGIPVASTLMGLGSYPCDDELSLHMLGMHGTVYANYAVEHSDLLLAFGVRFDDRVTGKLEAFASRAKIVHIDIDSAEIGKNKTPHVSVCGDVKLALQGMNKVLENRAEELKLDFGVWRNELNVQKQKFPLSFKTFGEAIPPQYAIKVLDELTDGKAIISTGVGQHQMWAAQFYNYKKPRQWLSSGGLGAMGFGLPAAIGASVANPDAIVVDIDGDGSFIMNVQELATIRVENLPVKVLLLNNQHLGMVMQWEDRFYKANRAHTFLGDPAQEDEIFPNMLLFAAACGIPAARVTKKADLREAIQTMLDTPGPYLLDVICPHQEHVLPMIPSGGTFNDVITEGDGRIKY
Note on units: pIC50 is unitless, being -log10 of a concentration expressed in mol/L.

The following compounds have reported results that may help.
- COC(=O)c1sccc1S(=O)(=O)NC(=O)Nc1nc(C)nc(OC)n1: 7.40
- COc1cc(OC)nc(NC(=O)NS(=O)(=O)c2ncccc2C(F)(F)F)n1: 9.10
- COc1cc(OC)n2nc(S(=O)(=O)Nc3c(Cl)ccc(C)c3Cl)nc2n1: 8.50
- CCS(=O)(=O)c1cccnc1S(=O)(=O)NC(=O)Nc1nc(OC)cc(OC)n1: 7.70
- COc1cc(OC)nc(NC(=O)NS(=O)(=O)c2ncccc2C(=O)N(C)C)n1: 6.80
- COc1cc(OC)nc(Oc2cccc(Oc3nc(OC)cc(OC)n3)c2C(=O)O)n1 [Bispyribac-sodium, bispyribac-sodium]: 7.80

Note: attention shifts to another entry.
Form field pIC50 for item COc1cc(OC)nc(NC(=O)NS(=O)(=O)c2cc(NC=O)ccc2C(=O)N(C)C)n1 on AHAS protein WT (Arabidopsis thaliana, UniProt P17597): 8.10

----------
# Target or system: mixture of two ALS proteins, one comprising the P197S and the other the W574L mutation (Arabidopsis thaliana, UniProt P17597, P197S/W574L)
# Sequence (P17597 56-670 P197S/W574L): as the sequence (P17597 56-670) above, with P142S, W519L counted along it
# Assay info: biochemical
# Setup conditions: calculated mixture of two ALS proteins, relative to WT
Here the recorded Resistance Factor P197S & W574L (mixture) is given for each entry.
Lab note: jot the number down without any unit.

• COC(=O)c1ccc(I)cc1S(=O)(=O)[N-]C(=O)Nc1nc(C)nc(OC)n1.[Na+] [Iodosulfuron-methy-sodium, iodosulfuron-methyl-sodium] = 316
• COc1cc(OC)n2nc(NS(=O)(=O)c3c(C(F)(F)F)ccnc3OC)nc2n1 = 6310
• COc1cc(OC)nc(NC(=O)NS(=O)(=O)c2cc(NC=O)ccc2C(=O)N(C)C)n1 = 398

Reported Resistance Factor P197S & W574L (mixture) of CCS(=O)(=O)c1cccnc1S(=O)(=O)NC(=O)Nc1nc(OC)cc(OC)n1 : 63

----------
# Target or system: mixture of two ALS proteins, one comprising the P197S and the other the W574L mutation (Arabidopsis thaliana, UniProt P17597, P197S/W574L)
# Assay info: biochemical
Label key: yes (1) means IC50 under 6 µM; no (0) means IC50 of 6 µM or more.

Example cases with answers are listed next.
* COc1cc(OC)nc(NC(=O)NS(=O)(=O)c2cc(NC=O)ccc2C(=O)N(C)C)n1 | yes (1)
* COc1cc(OC)n2nc(S(=O)(=O)Nc3c(Cl)ccc(C)c3Cl)nc2n1 | no (0)
* COc1cc(OC)nc(NC(=O)NS(=O)(=O)N(C)S(C)(=O)=O)n1 | no (0)
* COC(=O)c1sccc1S(=O)(=O)NC(=O)Nc1nc(C)nc(OC)n1 | no (0)

Exercise: A record lists CCS(=O)(=O)c1nc2ccccn2c1S(=O)(=O)NC(=O)Nc1nc(OC)cc(OC)n1 . Is its IC50 below 6 µM?
Solution: no (0)

----------
# Target or system: AHAS protein WT (Arabidopsis thaliana)
Property measured: IC50 (µM)
Reply with just the number (in µM).

The following compounds have reported results that may help.
- CCS(=O)(=O)c1nc2ccccn2c1S(=O)(=O)NC(=O)Nc1nc(OC)cc(OC)n1 [Sulfosulfuron, sulfosulfuron]: 0.02
- COc1cc(OC)nc(NC(=O)NS(=O)(=O)N(C)S(C)(=O)=O)n1 [Amidosulfuron, amidosulfuron]: 0.2

Note: attention shifts to another entry.
Reported IC50 of COCc1cnc(C2=NC(C)(C(C)C)C(=O)N2)c(C(=O)O)c1 (stereo not drawn) [Imazamox, imazamox] : 3.98
